System: Acinetobacter baumannii pittii AG225
Experiment: MIC by broth microdilution, Acinetobacter baumannii
Assay type: cell-based
Settings: strain AG225 Acinetobacter baumannii pittii
Where a name gives a salt, the structure may show the parent alone.
Listed molecules paired with reported MIC
observable: MIC (µg/mL)

{"molecule": "CC1CC(O)C2O[C@H](O[C@@H]3C(N)C[C@@H](N)C(O)[C@H]3O[C@@H]3O[C@H](CO)[C@H](O[C@H]4O[C@@H](CN)[C@@H](O)C(O)C4N)C3O)C(N)[C@@H](O)[C@@H]2O1 (stereo partly shown)", "observed": 4}
{"molecule": "CCC(O)C1O[C@H](O[C@@H]2C(N)C[C@@H](N)C(O)[C@H]2O[C@@H]2O[C@H](CO)[C@H](O[C@H]3O[C@@H](CN)[C@@H](O)C(O)C3N)C2O)C(N)[C@@H](O)[C@@H]1O (stereo partly shown)", "observed": 8}
{"molecule": "CCCNC1C(OC2C(N)CC(N)C(O)C2OC2OC(CO)C(OC3OC(CN)C(O)C(O)C3N)C2O)OC(CO)C(O)C1O (stereo not shown) [Compound 128, 2′-N-Propyl-paromomycin acetate salt]", "observed": 4}
{"molecule": "NC[C@@H]1O[C@H](O[C@H]2[C@@H](O)[C@H](O[C@@H]3[C@@H](O)[C@H](N)C[C@H](N)[C@H]3O[C@H]3O[C@H](CO)[C@@H](O)[C@H](O)[C@H]3N)O[C@@H]2CO)[C@H](N)[C@@H](O)[C@@H]1O [paromomycin, reference compound]", "observed": 2}
